System: cellobiose dehydrogenase
Type: biochemical, Coriolus hirsutus
Protocol conditions: 1 mM; incubation at 4° C. overnight
Would you please tag the item YES when its Relative activity is 40% or above, and NO when it is below?

Smiles string | Target | Class name
O=S(=O)([O-])[O-].[Fe+2] | cellobiose dehydrogenase | NO
[Cl][Al]([Cl])[Cl] | cellobiose dehydrogenase | NO
[Ca+2].[Cl-].[Cl-] | cellobiose dehydrogenase | YES
[Cl-].[Li+] | cellobiose dehydrogenase | YES
[Cl-].[Cl-].[Mg+2] | cellobiose dehydrogenase | YES
[Cl][Mn][Cl] | cellobiose dehydrogenase | NO
[Cl][Cu][Cl] | cellobiose dehydrogenase | YES
